# TARGET OR SYSTEM: CypF (Homo sapiens (Human), UniProt P30405)
# Sequence (P30405 30-207): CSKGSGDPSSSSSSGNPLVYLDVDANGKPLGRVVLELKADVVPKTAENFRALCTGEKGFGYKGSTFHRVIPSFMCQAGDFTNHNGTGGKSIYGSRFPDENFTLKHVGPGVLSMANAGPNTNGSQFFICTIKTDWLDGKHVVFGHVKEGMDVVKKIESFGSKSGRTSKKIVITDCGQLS
# MEASUREMENT NOTES: Inhibitor binding to cyclophilin proteins by SPR, CypF
# RUN CONDITIONS: 1:1 binding model
Starred links: 1 amine or outer side, 2 acyl side, 3 side chain; linkers in the order of their positions; H or OH if unused. Non-standard residues stand in square brackets, D forms with d. Residues, ends and D or L forms follow the SMILES beside them. X63 = C[C@H](CN1CCN(C2COC2)CC1)[C@@H](C(=O)[*:2])N(C)[*:1]; X55 = C[C@H](CN(C)CC(=O)N(C)C)[C@@H](C(=O)[*:2])N(C)[*:1]; MeBmt = C/C=C/C[C@@H](C)[C@@H](O)[C@H](NC)C(=O)O; NMeL = CN[C@@H](CC(C)C)C(=O)O; NMeV = CN[C@H](C(=O)O)C(C)C; dNMeA = CN[C@H](C)C(=O)O; Abu = CC[C@H](N)C(=O)O
Catalogue of molecules with associated CypF Kd
PROPERTY: CypF Kd (nM)

>>> result_number("C/C=C/C[C@@H](C)[C@@H](O)[C@H]1C(=O)N[C@@H](CC)C(=O)N(C)[C@H](CCCNC)C(=O)N(C)[C@@H]([C@H](C)COC)C(=O)N[C@@H](C(C)C)C(=O)N(C)[C@@H](CC(C)C)C(=O)N[C@@H](C)C(=O)N[C@H](C)C(=O)N(C)[C@@H](CC(C)C)C(=O)N(C)[C@@H](CC(C)C)C(=O)N(C)[C@@H](C(C)C)C(=O)N1C (stereo in doubt) [Compound 3.2.1]")
3.4
>>> result_number("C/C=C/C[C@@H](C)[C@@H](O)[C@H]1C(=O)N[C@@H](CC)C(=O)N(C)[C@H](C)C(=O)N(C)[C@@H]([C@H](C)CN(C)CC(=O)N(C)C)C(=O)N[C@@H](C(C)C)C(=O)N(C)[C@@H](CC(C)C)C(=O)N[C@@H](C)C(=O)N[C@H](C)C(=O)N(C)[C@@H](CC(C)C)C(=O)N(C)[C@@H](CC(C)C)C(=O)N(C)[C@@H](C(C)C)C(=O)N1C [Compound 2.5.27] (cyclo(A[dA][NMeL][NMeL][NMeV][MeBmt][Abu][dNMeA][X55]V[NMeL]))")
0.8
>>> result_number("C/C=C/C[C@@H](C)[C@@H](O)[C@H]1C(=O)N[C@@H](CC)C(=O)N(C)[C@H](C)C(=O)N(C)[C@@H]([C@H](C)CN2CCN(C3COC3)CC2)C(=O)N[C@@H](C(C)C)C(=O)N(C)[C@@H](CC(C)C)C(=O)N[C@@H](C)C(=O)N[C@H](C)C(=O)N(C)[C@@H](CC(C)C)C(=O)N(C)[C@@H](CC(C)C)C(=O)N(C)[C@@H](C(C)C)C(=O)N1C [Compound 2.5.11] (cyclo(A[dA][NMeL][NMeL][NMeV][MeBmt][Abu][dNMeA][X63]V[NMeL]))")
1

----------
# TARGET OR SYSTEM: CypF (Homo sapiens (Human))
# MEASUREMENT NOTES: Inhibitor binding to cyclophilin proteins by SPR, CypF
# RUN CONDITIONS: 1:1 binding model
# Method: Method 1: Measuring Inhibitor Binding to Cyclophilin Proteins Binding of inhibitors to expressed cyclophilins was determined using surface plasmon resonance (SPR) experiments. Briefly, avi-tagged cyclophilin proteins with mono-biotinylation were immobilized onto a Biotin CAPture chip (GE Healthcare, cat. #28920234). […] Data was analyzed using Biacore T200 Evaluation Software Version 1.0 and a 1:1 binding model was applied to fit the data to obtain kon, koff, and KD.
Starred links: 1 amine or outer side, 2 acyl side, 3 side chain; linkers in the order of their positions; H or OH if unused. Non-standard residues stand in square brackets, D forms with d. Residues, ends and D or L forms follow the SMILES beside them. X41 = CC(C)N1CCN(C[C@@H](C)[C@@H](C(=O)[*:2])N(C)[*:1])CC1; X11 = CCN1CCN(C[C@H](C)[C@@H](C(=O)[*:2])N(C)[*:1])CC1; MeBmt = C/C=C/C[C@@H](C)[C@@H](O)[C@H](NC)C(=O)O; NMeL = CN[C@@H](CC(C)C)C(=O)O; NMeV = CN[C@H](C(=O)O)C(C)C; dNMeA = CN[C@H](C)C(=O)O; Abu = CC[C@H](N)C(=O)O
PROPERTY: CypF Kd (nM)

>>> result_number("C/C=C/C[C@@H](C)[C@@H](O)[C@H]1C(=O)N[C@@H](CC)C(=O)N(C)[C@H](C)C(=O)N(C)[C@@H]([C@@H](C)CN2CCN(CC)CC2)C(=O)N[C@@H](C(C)C)C(=O)N(C)[C@@H](CC(C)C)C(=O)N[C@@H](C)C(=O)N[C@H](C)C(=O)N(C)[C@@H](CC(C)C)C(=O)N(C)[C@@H](CC(C)C)C(=O)N(C)[C@@H](C(C)C)C(=O)N1C [Compound 2.17.2] (cyclo(A[dA][NMeL][NMeL][NMeV][MeBmt][Abu][dNMeA][X11]V[NMeL]))")
0.5
>>> result_number("C/C=C/C[C@@H](C)[C@@H](O)[C@H]1C(=O)N[C@@H](CC)C(=O)N(C)[C@H](C)C(=O)N(C)[C@@H]([C@H](C)CN2CCN(C(C)C)CC2)C(=O)N[C@@H](C(C)C)C(=O)N(C)[C@@H](CC(C)C)C(=O)N[C@@H](C)C(=O)N[C@H](C)C(=O)N(C)[C@@H](CC(C)C)C(=O)N(C)[C@@H](CC(C)C)C(=O)N(C)[C@@H](C(C)C)C(=O)N1C [Compound 2.5.12] (cyclo(A[dA][NMeL][NMeL][NMeV][MeBmt][Abu][dNMeA][X41]V[NMeL]))")
0.4

----------
# TARGET OR SYSTEM: organic anion transporting polypeptide 1B1 (OATP1B1) (Homo sapiens (Human), UniProt Q9Y6L6)
# Sequence (Q9Y6L6 whole entry): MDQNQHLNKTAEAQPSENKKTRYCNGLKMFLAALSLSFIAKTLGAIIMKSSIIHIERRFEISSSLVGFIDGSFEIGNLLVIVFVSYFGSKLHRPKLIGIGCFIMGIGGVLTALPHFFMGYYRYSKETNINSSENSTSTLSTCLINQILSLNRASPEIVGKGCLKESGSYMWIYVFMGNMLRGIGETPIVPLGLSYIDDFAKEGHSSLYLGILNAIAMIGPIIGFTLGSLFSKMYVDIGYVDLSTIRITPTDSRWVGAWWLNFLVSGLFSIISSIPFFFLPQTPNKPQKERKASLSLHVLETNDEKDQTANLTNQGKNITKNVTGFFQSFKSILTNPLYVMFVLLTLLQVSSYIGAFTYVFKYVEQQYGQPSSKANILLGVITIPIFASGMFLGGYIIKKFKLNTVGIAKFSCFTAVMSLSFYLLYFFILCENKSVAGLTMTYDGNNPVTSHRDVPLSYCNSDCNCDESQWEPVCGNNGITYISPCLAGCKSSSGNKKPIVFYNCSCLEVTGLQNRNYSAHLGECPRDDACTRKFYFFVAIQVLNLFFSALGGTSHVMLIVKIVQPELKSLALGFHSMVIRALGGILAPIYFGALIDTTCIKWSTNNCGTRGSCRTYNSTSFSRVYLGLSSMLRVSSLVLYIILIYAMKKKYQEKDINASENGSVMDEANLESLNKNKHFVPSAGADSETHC
# MEASUREMENT NOTES: OATP assay in CHO-OATP1B1 cells;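 further: inhibition of probe substrate uptake into the cells, ten minutes exposure, accumulated substrate read by fluorescence once cells were lysed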
pIC50: −log10 of the molar value. Starred links: 1 amine or outer side, 2 acyl side, 3 side chain; linkers in the order of their positions; H or OH if unused. Non-standard residues stand in square brackets, D forms with d. Residues, ends and D or L forms follow the SMILES beside them. X26 = C[C@H](CN1CCn2c(nnc2C(F)(F)F)C1)[C@@H](C(=O)[*:2])N(C)[*:1]; X42 = C[C@H](CCCOC(=O)N(C)C1CCN(C)CC1)[C@@H](C(=O)[*:2])N(C)[*:1]; X33 = CC(C)N1CCOC(COC[C@@H](C)[C@@H](C(=O)[*:2])N(C)[*:1])C1; X38 = C[C@@H](CN1CCN2C(=O)OCC2C1)[C@@H](C(=O)[*:2])N(C)[*:1]; X35 = C[C@H](CN1CCC2(CC1)OCCO2)[C@@H](C(=O)[*:2])N(C)[*:1]; X79 = COCCN1CCN(CC[C@@H](C)[C@@H](C(=O)[*:2])N(C)[*:1])CC1; X43 = COCCN(C)C[C@@H](C)[C@@H](C(=O)[*:2])N(C)[*:1]; MeBmt = C/C=C/C[C@@H](C)[C@@H](O)[C@H](NC)C(=O)O; X2 = COCC[C@@H](C)[C@@H](C(=O)[*:2])N(C)[*:1]; X15 = COCC(COC)[C@@H](C(=O)[*:2])N(C)[*:1]; NMeL = CN[C@@H](CC(C)C)C(=O)O; NMeV = CN[C@H](C(=O)O)C(C)C; dNMeA = CN[C@H](C)C(=O)O; Abu = CC[C@H](N)C(=O)O
Catalogue of molecules with associated pIC50
PROPERTY: pIC50

>>> result_number("C/C=C/C[C@@H](C)[C@@H](O)[C@H]1C(=O)N[C@@H](CC)C(=O)N(C)[C@H](C)C(=O)N(C)[C@@H]([C@H](C)COCC2CN(C(C)C)CCO2)C(=O)N[C@@H](C(C)C)C(=O)N(C)[C@@H](CC(C)C)C(=O)N[C@@H](C)C(=O)N[C@H](C)C(=O)N(C)[C@@H](CC(C)C)C(=O)N(C)[C@@H](CC(C)C)C(=O)N(C)[C@@H](C(C)C)C(=O)N1C (stereo partly drawn) [Compound 2.20.2] (cyclo(A[dA][NMeL][NMeL][NMeV][MeBmt][Abu][dNMeA][X33]V[NMeL]))")
5.37
>>> result_number("C/C=C/C[C@@H](C)[C@@H](O)[C@H]1C(=O)N[C@@H](CC)C(=O)N(C)[C@H](C)C(=O)N(C)[C@@H]([C@H](C)CN2CCC3(CC2)OCCO3)C(=O)N[C@@H](C(C)C)C(=O)N(C)[C@@H](CC(C)C)C(=O)N[C@@H](C)C(=O)N[C@H](C)C(=O)N(C)[C@@H](CC(C)C)C(=O)N(C)[C@@H](CC(C)C)C(=O)N(C)[C@@H](C(C)C)C(=O)N1C [Compound 2.5.28] (cyclo(A[dA][NMeL][NMeL][NMeV][MeBmt][Abu][dNMeA][X35]V[NMeL]))")
5.68
>>> result_number("C/C=C/C[C@@H](C)[C@@H](O)[C@H]1C(=O)N[C@@H](CC)C(=O)N(C)[C@H](C)C(=O)N(C)[C@@H]([C@H](C)CCN2CCN(CCOC)CC2)C(=O)N[C@@H](C(C)C)C(=O)N(C)[C@@H](CC(C)C)C(=O)N[C@@H](C)C(=O)N[C@H](C)C(=O)N(C)[C@@H](CC(C)C)C(=O)N(C)[C@@H](CC(C)C)C(=O)N(C)[C@@H](C(C)C)C(=O)N1C [Compound 2.18.3] (cyclo(A[dA][NMeL][NMeL][NMeV][MeBmt][Abu][dNMeA][X79]V[NMeL]))")
5.04
>>> result_number("C/C=C/C[C@@H](C)[C@@H](O)[C@H]1C(=O)N[C@@H](CC)C(=O)N(C)[C@H](C)C(=O)N(C)[C@@H]([C@H](C)CCOC)C(=O)N[C@@H](C(C)C)C(=O)N(C)[C@@H](CC(C)C)C(=O)N[C@@H](C)C(=O)N[C@H](C)C(=O)N(C)[C@@H](CC(C)C)C(=O)N(C)[C@@H](CC(C)C)C(=O)N(C)[C@@H](C(C)C)C(=O)N1C [Compound 2.13] (cyclo(A[dA][NMeL][NMeL][NMeV][MeBmt][Abu][dNMeA][X2]V[NMeL]))")
5.64
>>> result_number("C/C=C/C[C@@H](C)[C@@H](O)[C@H]1C(=O)N[C@@H](CC)C(=O)N(C)[C@H](C)C(=O)N(C)[C@@H](C(COC)COC)C(=O)N[C@@H](C(C)C)C(=O)N(C)[C@@H](CC(C)C)C(=O)N[C@@H](C)C(=O)N[C@H](C)C(=O)N(C)[C@@H](CC(C)C)C(=O)N(C)[C@@H](CC(C)C)C(=O)N(C)[C@@H](C(C)C)C(=O)N1C [Compound 2.11] (cyclo(A[dA][NMeL][NMeL][NMeV][MeBmt][Abu][dNMeA][X15]V[NMeL]))")
5.59
>>> result_number("C/C=C/C[C@@H](C)[C@@H](O)[C@H]1C(=O)N[C@@H](CC)C(=O)N(C)[C@H](C)C(=O)N(C)[C@@H]([C@@H](C)CN2CCN3C(=O)OCC3C2)C(=O)N[C@@H](C(C)C)C(=O)N(C)[C@@H](CC(C)C)C(=O)N[C@@H](C)C(=O)N[C@H](C)C(=O)N(C)[C@@H](CC(C)C)C(=O)N(C)[C@@H](CC(C)C)C(=O)N(C)[C@@H](C(C)C)C(=O)N1C (stereo partly drawn) [Compound 2.17.10] (cyclo(A[dA][NMeL][NMeL][NMeV][MeBmt][Abu][dNMeA][X38]V[NMeL]))")
5.85
>>> result_number("C/C=C/C[C@@H](C)[C@@H](O)[C@H]1C(=O)N[C@@H](CC)C(=O)N(C)[C@H](C)C(=O)N(C)[C@@H]([C@H](C)CCCOC(=O)N(C)C2CCN(C)CC2)C(=O)N[C@@H](C(C)C)C(=O)N(C)[C@@H](CC(C)C)C(=O)N[C@@H](C)C(=O)N[C@H](C)C(=O)N(C)[C@@H](CC(C)C)C(=O)N(C)[C@@H](CC(C)C)C(=O)N(C)[C@@H](C(C)C)C(=O)N1C [Compound 2.19.9] (cyclo(A[dA][NMeL][NMeL][NMeV][MeBmt][Abu][dNMeA][X42]V[NMeL]))")
5.43
>>> result_number("C/C=C/C[C@@H](C)[C@@H](O)[C@H]1C(=O)N[C@@H](CC)C(=O)N(C)[C@H](C)C(=O)N(C)[C@@H]([C@H](C)CN(C)CCOC)C(=O)N[C@@H](C(C)C)C(=O)N(C)[C@@H](CC(C)C)C(=O)N[C@@H](C)C(=O)N[C@H](C)C(=O)N(C)[C@@H](CC(C)C)C(=O)N(C)[C@@H](CC(C)C)C(=O)N(C)[C@@H](C(C)C)C(=O)N1C [Compound 2.5.22] (cyclo(A[dA][NMeL][NMeL][NMeV][MeBmt][Abu][dNMeA][X43]V[NMeL]))")
5.72
>>> result_number("C/C=C/C[C@@H](C)[C@@H](O)[C@H]1C(=O)N[C@@H](CC)C(=O)N(C)[C@H](C)C(=O)N(C)[C@@H]([C@H](C)CN2CCn3c(nnc3C(F)(F)F)C2)C(=O)N[C@@H](C(C)C)C(=O)N(C)[C@@H](CC(C)C)C(=O)N[C@@H](C)C(=O)N[C@H](C)C(=O)N(C)[C@@H](CC(C)C)C(=O)N(C)[C@@H](CC(C)C)C(=O)N(C)[C@@H](C(C)C)C(=O)N1C [Compound 2.5.19] (cyclo(A[dA][NMeL][NMeL][NMeV][MeBmt][Abu][dNMeA][X26]V[NMeL]))")
6.00
